- test.system: telomerase (Homo sapiens)
- method.notes: Telomerase repeat processivity IC50: modified dNTP titrated into reactions with all four natural dNTPs
- Assay type: biochemical
- Parameters: made in house; anti-FLAG immunopurification, eluted with 3xFLAG peptide
- recorded.conditions: repeat processivity R 1/2; mean of replicates; read-out: Mean IC50
endpoint: pIC50
# log scale: pIC50 equals minus log10 of the concentration in mol/L

O=c1[nH]cnc2c1ncn2C1CCC(COP(=O)(O)OP(=O)(O)OP(=O)(O)O)O1 (centres unmarked): 4.22

// query # lookup: pIC50 of Cc1cn([C@H]2C[C@H](N=[N+]=[N-])[C@@H](CO[P@](=O)(O)O[P@](=O)(O)OP(=O)(O)O)O2)c(=O)[nH]c1=O
// result 3.40

----------
- test.system: telomerase (Homo sapiens, UniProt O14746)
- Sequence (O14746 whole entry): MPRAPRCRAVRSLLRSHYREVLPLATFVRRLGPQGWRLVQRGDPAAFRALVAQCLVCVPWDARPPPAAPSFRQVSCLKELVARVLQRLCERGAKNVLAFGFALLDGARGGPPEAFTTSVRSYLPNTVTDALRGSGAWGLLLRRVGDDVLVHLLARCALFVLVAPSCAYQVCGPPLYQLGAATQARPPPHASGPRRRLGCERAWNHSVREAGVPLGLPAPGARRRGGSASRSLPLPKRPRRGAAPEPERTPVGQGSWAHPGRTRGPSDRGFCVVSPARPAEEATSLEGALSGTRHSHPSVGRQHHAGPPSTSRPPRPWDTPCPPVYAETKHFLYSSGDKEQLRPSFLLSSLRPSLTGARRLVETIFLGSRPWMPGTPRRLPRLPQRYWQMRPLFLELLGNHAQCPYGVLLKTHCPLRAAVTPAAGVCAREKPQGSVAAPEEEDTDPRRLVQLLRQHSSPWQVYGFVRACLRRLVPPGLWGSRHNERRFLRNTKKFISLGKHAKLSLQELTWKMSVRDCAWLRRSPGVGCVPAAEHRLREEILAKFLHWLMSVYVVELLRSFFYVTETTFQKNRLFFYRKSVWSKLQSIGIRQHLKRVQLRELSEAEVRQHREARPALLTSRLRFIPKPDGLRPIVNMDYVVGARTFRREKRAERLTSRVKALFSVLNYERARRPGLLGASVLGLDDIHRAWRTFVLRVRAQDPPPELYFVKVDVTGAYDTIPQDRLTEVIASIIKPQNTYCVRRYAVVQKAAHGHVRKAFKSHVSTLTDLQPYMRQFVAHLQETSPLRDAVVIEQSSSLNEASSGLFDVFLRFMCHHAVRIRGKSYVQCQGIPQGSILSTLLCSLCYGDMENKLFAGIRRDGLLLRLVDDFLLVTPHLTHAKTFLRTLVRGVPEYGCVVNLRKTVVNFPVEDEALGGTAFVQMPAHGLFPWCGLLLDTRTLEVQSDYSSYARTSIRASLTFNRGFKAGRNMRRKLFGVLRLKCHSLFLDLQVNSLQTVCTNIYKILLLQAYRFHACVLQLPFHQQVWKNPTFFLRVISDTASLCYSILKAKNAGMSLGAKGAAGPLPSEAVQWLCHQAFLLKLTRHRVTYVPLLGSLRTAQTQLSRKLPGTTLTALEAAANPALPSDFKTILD
- method.notes: Direct telomerase assay in the absence or presence of POT1-TPP1 (processivity R1/2)
- Format: biochemical
- Design: made in house; POT1: baculovirus-infected Sf9; TPP1-N: E. coli BL21(DE3) pLysS
- recorded.conditions: Control (no POT1-TPP1); analog substituted for its natural dNTP, other dNTPs at cellular concentration; Mean
endpoint: Processivity R 1/2
Enter a number only.

Examples with answers:
O=c1[nH]cnc2c1ncn2C1CCC(COP(=O)(O)OP(=O)(O)OP(=O)(O)O)O1 (stereo not drawn): 0.00
Nc1ncnc2c1[nH]c(=O)n2C1CC(O)C(COP(=O)(O)OP(=O)(O)OP(=O)(O)O)O1 (stereo not drawn): 0.00
Nc1nc2c([nH]c(=O)n2C2CC(O)C(COP(=O)(O)OP(=O)(O)OP(=O)(O)O)O2)c(=O)[nH]1 (stereo not drawn): 0.00

// query # lookup: Processivity R 1/2 of Nc1nc(O)nc2c1ncn2C1CC(O)C(COP(=O)(O)OP(=O)(O)OP(=O)(O)O)O1 (stereo not drawn)
// result 0.5

// query # lookup: Processivity R 1/2 of Cc1cn([C@H]2C[C@H](N=[N+]=[N-])[C@@H](CO[P@](=O)(O)O[P@](=O)(O)OP(=O)(O)O)O2)c(=O)[nH]c1=O
// result 0.00

// query # lookup: Processivity R 1/2 of Nc1nc2c(ncn2C2CC(O)C(COP(=O)(O)OP(=O)(O)OP(=O)(O)O)O2)c(=S)[nH]1 (stereo not drawn)
// result 0.00

----------
- test.system: telomerase (Homo sapiens, UniProt O14746)
- method.notes: Telomerase repeat processivity IC50: modified dNTP titrated into reactions with all four natural dNTPs
- Type: biochemical
- Design: made in house; anti-FLAG immunopurification, eluted with 3xFLAG peptide
- recorded.conditions: log of processivity IC50 (concentration in μM); Supplementary Fig 8b; read-out: Log IC50 (converted)
Kindly apply the following: satisfied if IC50 is less than 60 µM, not satisfied in every other case.

Nc1nc2c(ncn2C2CC(O)C(COP(=O)(O)OP(=O)(O)OP(=O)(O)O)O2)c(=S)[nH]1 (stereo not drawn): satisfied
Nc1ncnc2c1[nH]c(=O)n2C1CC(O)C(COP(=O)(O)OP(=O)(O)OP(=O)(O)O)O1 (stereo not drawn): not satisfied
Cc1cn([C@H]2C[C@H](N=[N+]=[N-])[C@@H](CO[P@](=O)(O)O[P@](=O)(O)OP(=O)(O)O)O2)c(=O)[nH]c1=O: not satisfied
O=c1[nH]cnc2c1ncn2C1CCC(COP(=O)(O)OP(=O)(O)OP(=O)(O)O)O1 (stereo not drawn): not satisfied
Nc1nc2c([nH]c(=O)n2C2CC(O)C(COP(=O)(O)OP(=O)(O)OP(=O)(O)O)O2)c(=O)[nH]1 (stereo not drawn): not satisfied

// query Lab log: compare recorded IC50 with 60 µM; is it strictly lower for Nc1nc(O)nc2c1ncn2C1CC(O)C(COP(=O)(O)OP(=O)(O)OP(=O)(O)O)O1 (stereo not drawn) ?
// result not satisfied

----------
- test.system: UniProt:O14746
- method.notes: Telomerase extension of 32P-end labeled primers with a single dNTP (percent primer extension)
- Format: biochemical
- Parameters: made in house; anti-FLAG immunopurification, eluted with 3xFLAG peptide
- recorded.conditions: Primer 1 (TTAGGG)3, first template base rA3; 50 μM single dNTP; Mean of three experiments
- Procedure: A chain terminating mechanism of inhibition requires that the enzyme adds the modified dNTP to a growing chain, which then blocks further synthesis. […] To test whether telomerase can incorporate other modified dNTPs, and whether the incorporation is chain terminating and/or mutagenic, we conducted direct extension assays in which we radiolabeled the primer and added increasing concentrations (5, 50, and 500 μM) of a single dNTP (Supplementary Figs. 3, 5, 6, and 7). […]
Entries annotated with measured Percent Primer Extension
# unit: % | format: bare number

Examples with answers:
Nc1ncnc2c1[nH]c(=O)n2C1CC(O)C(COP(=O)(O)OP(=O)(O)OP(=O)(O)O)O1 (stereo not drawn): 0.53
Nc1ccn([C@H]2C[C@H](O)[C@@H](COP(=O)(O)OP(=O)(O)OP(=O)(O)O)O2)c(=O)n1: 5.85
O=c1[nH]cnc2c1ncn2C1CCC(COP(=O)(O)OP(=O)(O)OP(=O)(O)O)O1 (stereo not drawn): 1.59
Nc1nc(O)nc2c1ncn2C1CC(O)C(COP(=O)(O)OP(=O)(O)OP(=O)(O)O)O1 (stereo not drawn): 2.82
Nc1nc2c([nH]c(=O)n2C2CC(O)C(COP(=O)(O)OP(=O)(O)OP(=O)(O)O)O2)c(=O)[nH]1 (stereo not drawn): 10.80

Shift focus to the following entry.
// query # lookup: Percent Primer Extension of Nc1ncnc2c1ncn2C1CC(O)C(COP(=O)(O)OP(=O)(O)OP(=O)(O)O)O1 (stereo not drawn)
// result 3.48

----------
Entries annotated with measured % Primer Extension
- test.system: telomerase (Homo sapiens, UniProt O14746)
- method.notes: Telomerase extension of 32P-end labeled primers with a single dNTP (percent primer extension)
- Assay type: biochemical
- Set-up: made in house; anti-FLAG immunopurification, eluted with 3xFLAG peptide
- recorded.conditions: Primer 2; 5µM dNTP
# unit: % | format: bare number

// query Request: % Primer Extension, test system telomerase (Homo sapiens, UniProt O14746), entry Nc1nc2c(ncn2C2CC(O)C(COP(=O)(O)OP(=O)(O)OP(=O)(O)O)O2)c(=S)[nH]1 (stereo not drawn)
// result 6.19

// query Request: % Primer Extension, test system telomerase (Homo sapiens, UniProt O14746), entry Nc1ccn([C@H]2C[C@H](O)[C@@H](COP(=O)(O)OP(=O)(O)OP(=O)(O)O)O2)c(=O)n1
// result 0.00

----------
- test.system: telomerase (Homo sapiens)
- method.notes: Telomerase extension of 32P-end labeled primers with a single dNTP (percent primer extension)
- Format: biochemical
- Parameters: made in house; anti-FLAG immunopurification, eluted with 3xFLAG peptide
- recorded.conditions: Primer 1; 50µM dNTP
Entries annotated with measured % Primer Extension
# unit: % | format: bare number

Examples with answers:
Nc1ccn([C@H]2C[C@H](O)[C@@H](COP(=O)(O)OP(=O)(O)OP(=O)(O)O)O2)c(=O)n1: 7.81
Nc1ncnc2c1[nH]c(=O)n2C1CC(O)C(COP(=O)(O)OP(=O)(O)OP(=O)(O)O)O1 (centres unmarked): 0.00
Nc1nc2c(ncn2C2CC(O)C(COP(=O)(O)OP(=O)(O)OP(=O)(O)O)O2)c(=S)[nH]1 (centres unmarked): 3.68
O=c1[nH]cnc2c1ncn2C1CCC(COP(=O)(O)OP(=O)(O)OP(=O)(O)O)O1 (centres unmarked): 4.29

Shift focus to the following entry.
// query Request: % Primer Extension, test system telomerase (Homo sapiens), entry Cc1cn(C2CC(O)C(COP(=O)(O)OP(=O)(O)OP(=O)(O)O)O2)c(=O)[nH]c1=O (centres unmarked)
// result 36.00

----------
- test.system: telomerase (Homo sapiens, UniProt O14746)
- method.notes: Telomerase extension of 32P-end labeled primers with a single dNTP (percent primer extension)
- Format: biochemical
- Parameters: made in house; anti-FLAG immunopurification, eluted with 3xFLAG peptide
- recorded.conditions: Primer 2; 500µM dNTP
- Experimental: A chain terminating mechanism of inhibition requires that the enzyme adds the modified dNTP to a growing chain, which then blocks further synthesis. […] To test whether telomerase can incorporate other modified dNTPs, and whether the incorporation is chain terminating and/or mutagenic, we conducted direct extension assays in which we radiolabeled the primer and added increasing concentrations (5, 50, and 500 μM) of a single dNTP (Supplementary Figs. 3, 5, 6, and 7). […]
Criterion: % Primer Extension meeting or surpassing 3%. Met: Criterion met. Not met: Criterion not met.

Examples from the recorded data:
O=c1[nH]cnc2c1ncn2C1CCC(COP(=O)(O)OP(=O)(O)OP(=O)(O)O)O1 (stereo not drawn): Criterion met
Nc1nc2c([nH]c(=O)n2C2CC(O)C(COP(=O)(O)OP(=O)(O)OP(=O)(O)O)O2)c(=O)[nH]1 (stereo not drawn): Criterion met
Nc1nc2c(ncn2C2CC(O)C(COP(=O)(O)OP(=O)(O)OP(=O)(O)O)O2)c(=S)[nH]1 (stereo not drawn): Criterion met
Cc1cn(C2CC(O)C(COP(=O)(O)OP(=O)(O)OP(=O)(O)O)O2)c(=O)[nH]c1=O (stereo not drawn): Criterion not met
Cc1cn([C@H]2C[C@H](N=[N+]=[N-])[C@@H](CO)O2)c(=O)[nH]c1=O: Criterion not met

Turning to the following molecule.
// query Please indicate if the recorded % Primer Extension for Nc1ccn([C@H]2C[C@H](O)[C@@H](COP(=O)(O)OP(=O)(O)OP(=O)(O)O)O2)c(=O)n1 meets or exceeds 3%.
// result Criterion not met
